Recorded IC50 values for a group of compounds are listed next.
- System: 292921-168-R-J2-PDC KRAS tumor spheroid viability;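 also: drug exposure lasted seven days after spheroids formed for three days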
- assay_name: Anticancer human tumor 292921-168-R-J2-PDC patient-derived pancreatic carcinoma cell line growth inhibition [KRAS2]
- condition_details: curve of first compound; second compound 1 µM; spheroids with HUVEC and MSC

compound	IC50
CC(=O)OC12COC1CC(O)C1(C)C(=O)C(O)C3=C(C)C(OC(=O)C(O)C(NC(=O)OC(C)(C)C)c4ccccc4)CC(O)(C(OC(=O)c4ccccc4)C21)C3(C)C (configuration not stated) + CNCc1ccccc1-c1csc(C(C)Nc2nc(C)nc3cc(OC)c(OC)cc23)c1	< 0.01 µM
CC1COCCN1c1cc(-c2ccnn2C)c2ccnc(-c3ccn[nH]3)c2n1 (configuration not stated) + C=CC(=O)N1CCN(c2nc(OCC3CCCN3C)nc3c2CCN(c2cccc4cccc(C)c24)C3)CC1CC#N	< 0.01 µM
CC(=O)Nc1cccc(-n2c(=O)n(C3CC3)c(=O)c3c(Nc4ccc(I)cc4F)n(C)c(=O)c(C)c32)c1 + CC1OCC2(CCN(c3cnc(Sc4ccnc(N)c4Cl)c(N)n3)CC2)C1N	< 0.0001 µM
CCNC(=O)CC1N=C(c2ccc(Cl)cc2)c2cc(OC)ccc2-n2c(C)nnc21 (configuration not stated) + CC1OCC2(CCN(c3cnc(Sc4ccnc(N)c4Cl)c(N)n3)CC2)C1N	< 0.0316 µM
CC1COCCN1c1cc(-c2ccnn2C)c2ccnc(-c3ccn[nH]3)c2n1 (configuration not stated) + COc1cc2nc(C)nc(NC(C)c3cc(N)cc(C(F)(F)F)c3)c2cc1OC1CCOC1	< 0.01 µM
CC(C)n1nc(-c2ccc3oc(N)nc3c2)c2c(N)ncnc21 + CC1OCC2(CCN(c3cnc(Sc4ccnc(N)c4Cl)c(N)n3)CC2)C1N	< 0.000316 µM
Cn1ncnc1[C@H]1c2n[nH]c(=O)c3cc(F)cc(c23)N[C@@H]1c1ccc(F)cc1 + COc1cc2nc(C)nc(NC(C)c3cc(N)cc(C(F)(F)F)c3)c2cc1OC1CCOC1	> 0.1 µM
COC(=O)c1ccc2c(C(=Nc3ccc(N(C)C(=O)CN4CCN(C)CC4)cc3)c3ccccc3)c(O)[nH]c2c1 + CC1OCC2(CCN(c3cnc(Sc4ccnc(N)c4Cl)c(N)n3)CC2)C1N	< 0.0316 µM
COC(=O)c1ccc2c(C(=Nc3ccc(N(C)C(=O)CN4CCN(C)CC4)cc3)c3ccccc3)c(O)[nH]c2c1 + C=CC(=O)N1CCN(c2nc(OCC3CCCN3C)nc3c2CCN(c2cccc4cccc(C)c24)C3)CC1CC#N	< 0.0316 µM
COc1cc(Nc2ncc3c(n2)-c2ccc(Cl)cc2C(c2c(F)cccc2OC)=NC3)ccc1C(=O)O + CC1OCC2(CCN(c3cnc(Sc4ccnc(N)c4Cl)c(N)n3)CC2)C1N	< 0.0316 µM
Cn1nccc1Nc1nccc(-c2cc3c(s2)C(C)(C)N(CCN2CCOCC2)C3=O)n1 + CNCc1ccccc1-c1csc(C(C)Nc2nc(C)nc3cc(OC)c(OC)cc23)c1	< 0.0316 µM
CN(C)C/C=C/C(=O)Nc1cc2c(Nc3ccc(F)c(Cl)c3)ncnc2cc1O[C@H]1CCOC1 + CC1OCC2(CCN(c3cnc(Sc4ccnc(N)c4Cl)c(N)n3)CC2)C1N	> 0.1 µM
